Molecular target: T1, Human ALPP (leucine zipper) (human)
T1 construct: Whole entry: ALPP fused with a cysteine stabilised leucine zipper and His tag; also called hALPP
T1 chain: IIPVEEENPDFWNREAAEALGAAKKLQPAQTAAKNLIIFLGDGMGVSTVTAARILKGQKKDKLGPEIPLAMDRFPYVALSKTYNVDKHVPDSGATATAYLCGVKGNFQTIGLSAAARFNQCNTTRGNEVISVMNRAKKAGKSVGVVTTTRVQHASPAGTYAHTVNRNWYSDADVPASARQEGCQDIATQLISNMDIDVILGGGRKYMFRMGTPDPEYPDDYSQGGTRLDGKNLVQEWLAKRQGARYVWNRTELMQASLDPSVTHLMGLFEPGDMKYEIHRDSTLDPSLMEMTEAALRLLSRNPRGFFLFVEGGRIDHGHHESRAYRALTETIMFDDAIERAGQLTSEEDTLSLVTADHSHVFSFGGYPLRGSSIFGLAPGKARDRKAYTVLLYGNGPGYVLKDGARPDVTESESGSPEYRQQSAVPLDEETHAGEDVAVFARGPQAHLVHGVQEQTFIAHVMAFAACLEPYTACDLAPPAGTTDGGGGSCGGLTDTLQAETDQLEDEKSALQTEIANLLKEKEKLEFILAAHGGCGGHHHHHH
Assay: BLI, antigen immobilised
Readout type: kon
Quote the value and follow it with the unit of measurement.

Binder | kon
H10 (VHH, not shown: small tags and cut ends) VHH: QVQLVESGGGSVQTGGSLRLSCAASGPSLSNYAMGWFRQAPGKEREFVAGISWGGGRTNYLDSVKGRFTISRDNAKNTMYLQMNSLKPEDAAVYYCAGRYGRGRDVEYEYDYWGQGTQVTVSS | 45900 M⁻¹ s⁻¹

Read the next record carefully.
Q: What does the record list as kon for A08 (VHH, not shown: small tags and cut ends) VHH: QVQLVESGGGLVQAGESLRLACAASGTIFSGNAVGWYRQAPEKQREWVSSITDYGDTDYAEAVKGRFTISRDNAKNTVYLQMNSLKPEDTAVYYCYVYQRGESEEYWGQGTKVTVSS ?
Result: 429000 M⁻¹ s⁻¹
